- MEASUREMENT NOTES: Solubility in water of the compound at room temperature and at 60° C.
- Format: physicochemical
- CONDITIONS: room temperature; mass percentage
READOUT KIND: solubility in water

[
  {
    "MOLECULE": "CCCCC(CC)CNc1ccc2c3c1C(=O)c1ccccc1-c3c(C(C)=O)c(=O)n2CCCC (stereo not drawn)",
    "solubility in water": "less than 1%"
  },
  {
    "MOLECULE": "CCCCC(CC)CNc1ccc2c3c1C(=O)c1ccccc1-c3c(C(=O)c1ccccc1)c(=O)n2CCCC (stereo not drawn)",
    "solubility in water": "less than 1%"
  },
  {
    "MOLECULE": "CCCCC(CC)CNc1ccc2c3c1C(=O)c1ccccc1-c3c(C(=O)c1ccccc1)c(=O)n2CC(CC)CCCC (stereo not drawn)",
    "solubility in water": "less than 1%"
  },
  {
    "MOLECULE": "CCCCC(CC)Cn1c(=O)c(C(=O)c2ccccc2)c2c3c(c(NC4CCCCC4)ccc31)C(=O)c1ccccc1-2 (stereo not drawn)",
    "solubility in water": "less than 1%"
  },
  {
    "MOLECULE": "CCCCC(CC)CNc1ccc2c3c1C(=O)c1ccccc1-c3c(C(=O)OCC)c(=O)n2CC(CC)CCCC (stereo not drawn)",
    "solubility in water": "less than 1%"
  },
  {
    "MOLECULE": "CCCCOCCCNc1ccc2c3c1C(=O)c1ccccc1-c3c(C(=O)c1ccccc1)c(=O)n2CC(CC)CCCC (stereo not drawn)",
    "solubility in water": "less than 1%"
  },
  {
    "MOLECULE": "CCCCNc1ccc2c3c1C(=O)c1ccccc1-c3c(C(=O)c1ccccc1)c(=O)n2CCCC",
    "solubility in water": "less than 1%"
  },
  {
    "MOLECULE": "CCCCC(CC)CNc1ccc2c3c1C(=O)c1ccccc1-c3c(C(=O)c1ccc(OC)cc1)c(=O)n2CCCC (stereo not drawn)",
    "solubility in water": "less than 1%"
  }
]

Next molecule, please.
Dear colleague, I am looking for the recorded solubility in water of the following molecule: CCCCC(CC)CNc1ccc2c3c1C(=O)c1ccccc1-c3c(C(=O)c1ccccc1)c(=O)n2C (stereo not drawn) less than 1%
